# System: 945468-187-T-J3-PDC spheroids with HUVEC/MSC, viability
# protocol-description: Anticancer human tumor 945468-187-T-J3-PDC patient-derived rectal carcinoma cell line growth inhibition [PI3K]
# condition-parameters: second compound 0.1 µM; first compound 0.316 µM; stronger effect = lower value
parameter-measured: viability, T/C (%)

compound: Cn1ncc(Cl)c1-c1cc(C(=O)NC(CN)Cc2cccc(F)c2)sc1Cl (stereo unspecified) + COc1c(OCCCN2CCOCC2)ccc2c3n(c(=NC(=O)c4cnc(N)nc4)nc12)CCN3
unit-symbol: %
endpoint-value: 28.4
//
compound: CCN1CCN(Cc2ccc(Nc3ncc(F)c(-c4cc(F)c5nc(C)n(C(C)C)c5c4)n3)nc2)CC1 + COc1c(OCCCN2CCOCC2)ccc2c3n(c(=NC(=O)c4cnc(N)nc4)nc12)CCN3
unit-symbol: %
endpoint-value: 18.2
//
compound: CC(C)NCC(C(=O)N1CCN(c2ncnc3c2C(C)CC3O)CC1)c1ccc(Cl)cc1 (stereo unspecified) + COc1c(OCCCN2CCOCC2)ccc2c3n(c(=NC(=O)c4cnc(N)nc4)nc12)CCN3
unit-symbol: %
endpoint-value: 43.4
//
compound: CC(C)NCC(C(=O)N1CCN(c2ncnc3c2C(C)CC3O)CC1)c1ccc(Cl)cc1 (stereo unspecified) + CC(Nc1ccc2c(c1)OCCn1cc(N3C(=O)OCC3C(F)F)nc1-2)C(N)=O
unit-symbol: %
endpoint-value: 87
//
compound: CCCS(=O)(=O)Nc1ccc(F)c(C(=O)c2c[nH]c3ncc(-c4ccc(Cl)cc4)cc23)c1F + COc1c(OCCCN2CCOCC2)ccc2c3n(c(=NC(=O)c4cnc(N)nc4)nc12)CCN3
unit-symbol: %
endpoint-value: 38.2
//
compound: CC1(C)CCC(CN2CCN(c3ccc(C(=O)NS(=O)(=O)c4ccc(NCC5CCOCC5)c([N+](=O)[O-])c4)c(Oc4cnc5[nH]ccc5c4)c3)CC2)=C(c2ccc(Cl)cc2)C1 + CC(Nc1ccc2c(c1)OCCn1cc(N3C(=O)OCC3C(F)F)nc1-2)C(N)=O
unit-symbol: %
endpoint-value: 105
//
compound: CC(Cn1ccc(-c2ccc(C#N)c(Cl)c2)n1)NC(=O)c1cc(C(C)O)[nH]n1 (stereo unspecified) + Cc1nc(NC(=O)N2CCCC2C(N)=O)sc1-c1ccnc(C(C)(C)C(F)(F)F)c1
unit-symbol: %
endpoint-value: 91.9
//
compound: CC(Cn1ccc(-c2ccc(C#N)c(Cl)c2)n1)NC(=O)c1cc(C(C)O)[nH]n1 (stereo unspecified) + COc1c(OCCCN2CCOCC2)ccc2c3n(c(=NC(=O)c4cnc(N)nc4)nc12)CCN3
unit-symbol: %
endpoint-value: 49.1
//
compound: CC(C)NCC(C(=O)N1CCN(c2ncnc3c2C(C)CC3O)CC1)c1ccc(Cl)cc1 (stereo unspecified) + CC(Nc1ncnc2nc[nH]c12)c1cc2cccc(Cl)c2c(=O)n1-c1ccccc1
unit-symbol: %
endpoint-value: 86
//
compound: C#Cc1c(F)ccc2cc(O)cc(-c3ncc4c(N5CC6CCC(C5)N6)nc(OCC56CCCN5CC(F)C6)nc4c3F)c12 (stereo unspecified) + COc1c(OCCCN2CCOCC2)ccc2c3n(c(=NC(=O)c4cnc(N)nc4)nc12)CCN3
unit-symbol: %
endpoint-value: 46.3
//
compound: CC(Cn1ccc(-c2ccc(C#N)c(Cl)c2)n1)NC(=O)c1cc(C(C)O)[nH]n1 (stereo unspecified) + CC(Nc1ccc2c(c1)OCCn1cc(N3C(=O)OCC3C(F)F)nc1-2)C(N)=O
unit-symbol: %
endpoint-value: 115

* * *

// values below are reported IC50
# Tested on: 945468-187-T-J3-PDC spheroids with HUVEC/MSC, viability
# protocol-description: Anticancer human tumor 945468-187-T-J3-PDC cell line growth inhibition [PI3K];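 also: spheroids exposed to agents for 7 days before viability read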
# condition-parameters: curve of first compound; second compound 1 µM

compound: CC(C)NCC(C(=O)N1CCN(c2ncnc3c2C(C)CC3O)CC1)c1ccc(Cl)cc1 (stereo unspecified) + CC(Nc1ccc2c(c1)OCCn1cc(N3C(=O)OCC3C(F)F)nc1-2)C(N)=O
IC50: 1.38 µM

compound: CC1(C)CCC(CN2CCN(c3ccc(C(=O)NS(=O)(=O)c4ccc(NCC5CCOCC5)c([N+](=O)[O-])c4)c(Oc4cnc5[nH]ccc5c4)c3)CC2)=C(c2ccc(Cl)cc2)C1 + CC(Nc1ccc2c(c1)OCCn1cc(N3C(=O)OCC3C(F)F)nc1-2)C(N)=O
IC50: > 10 µM

compound: CC(Cn1ccc(-c2ccc(C#N)c(Cl)c2)n1)NC(=O)c1cc(C(C)O)[nH]n1 (stereo unspecified) + Cc1nc(NC(=O)N2CCCC2C(N)=O)sc1-c1ccnc(C(C)(C)C(F)(F)F)c1
IC50: > 10 µM

compound: CC(Cn1ccc(-c2ccc(C#N)c(Cl)c2)n1)NC(=O)c1cc(C(C)O)[nH]n1 (stereo unspecified) + COc1c(OCCCN2CCOCC2)ccc2c3n(c(=NC(=O)c4cnc(N)nc4)nc12)CCN3
IC50: < 0.0316 µM

compound: Cn1ncnc1[C@H]1c2n[nH]c(=O)c3cc(F)cc(c23)N[C@@H]1c1ccc(F)cc1 + CC(Nc1ncnc2nc[nH]c12)c1cc2cccc(Cl)c2c(=O)n1-c1ccccc1
IC50: > 0.1 µM

compound: CC(C)NCC(C(=O)N1CCN(c2ncnc3c2C(C)CC3O)CC1)c1ccc(Cl)cc1 (stereo unspecified) + Cc1nc(NC(=O)N2CCCC2C(N)=O)sc1-c1ccnc(C(C)(C)C(F)(F)F)c1
IC50: 2.9 µM

compound: CCCS(=O)(=O)Nc1ccc(F)c(C(=O)c2c[nH]c3ncc(-c4ccc(Cl)cc4)cc23)c1F + COc1c(OCCCN2CCOCC2)ccc2c3n(c(=NC(=O)c4cnc(N)nc4)nc12)CCN3
IC50: < 0.0316 µM

compound: Cn1cnc2c(F)c(Nc3ccc(Br)cc3Cl)c(C(=O)NOCCO)cc21 + CC(Nc1ccc2c(c1)OCCn1cc(N3C(=O)OCC3C(F)F)nc1-2)C(N)=O
IC50: 0.032 µM

compound: C#Cc1c(F)ccc2cc(O)cc(-c3ncc4c(N5CC6CCC(C5)N6)nc(OCC56CCCN5CC(F)C6)nc4c3F)c12 (stereo unspecified) + Cc1nc(NC(=O)N2CCCC2C(N)=O)sc1-c1ccnc(C(C)(C)C(F)(F)F)c1
IC50: > 10 µM

compound: CNC(=O)c1ccc(N2C(=S)N(c3ccc(C#N)c(C(F)(F)F)c3)C(=O)C2(C)C)cc1F + CC(Nc1ncnc2nc[nH]c12)c1cc2cccc(Cl)c2c(=O)n1-c1ccccc1
IC50: > 10 µM

compound: CC(C)NCC(C(=O)N1CCN(c2ncnc3c2C(C)CC3O)CC1)c1ccc(Cl)cc1 (stereo unspecified) + COc1c(OCCCN2CCOCC2)ccc2c3n(c(=NC(=O)c4cnc(N)nc4)nc12)CCN3
IC50: < 0.0316 µM

* * *

// values below are reported viability, T/C
# Tested on: 945468-187-T-J3-PDC spheroids with HUVEC/MSC, viability
# protocol-description: Anticancer human tumor 945468-187-T-J3-PDC cell line growth inhibition [PI3K];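 also: spheroids exposed to agents for 7 days before viability read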;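 as to viability, T/C: 100% = DMSO vehicle control viability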
# condition-parameters: second compound 0.00316 µM; first compound 3.16 µM; stronger effect = lower value

compound: Cn1ncc(Cl)c1-c1cc(C(=O)NC(CN)Cc2cccc(F)c2)sc1Cl (stereo not given) + COc1c(OCCCN2CCOCC2)ccc2c3n(c(=NC(=O)c4cnc(N)nc4)nc12)CCN3
unit-symbol: %
viability, T/C: 32.7

compound: Cn1ncc(Cl)c1-c1cc(C(=O)NC(CN)Cc2cccc(F)c2)sc1Cl (stereo not given) + CC(Nc1ccc2c(c1)OCCn1cc(N3C(=O)OCC3C(F)F)nc1-2)C(N)=O
unit-symbol: %
viability, T/C: 58.9

compound: CNC(=O)c1ccc(N2C(=S)N(c3ccc(C#N)c(C(F)(F)F)c3)C(=O)C2(C)C)cc1F + CC(Nc1ccc2c(c1)OCCn1cc(N3C(=O)OCC3C(F)F)nc1-2)C(N)=O
unit-symbol: %
viability, T/C: 132

compound: Cn1nccc1Nc1nccc(-c2ccn(C(CO)c3ccc(Cl)c(F)c3)c(=O)c2)n1 (stereo not given) + CC(Nc1ccc2c(c1)OCCn1cc(N3C(=O)OCC3C(F)F)nc1-2)C(N)=O
unit-symbol: %
viability, T/C: 143

compound: CC1(C)CCC(CN2CCN(c3ccc(C(=O)NS(=O)(=O)c4ccc(NCC5CCOCC5)c([N+](=O)[O-])c4)c(Oc4cnc5[nH]ccc5c4)c3)CC2)=C(c2ccc(Cl)cc2)C1 + COc1c(OCCCN2CCOCC2)ccc2c3n(c(=NC(=O)c4cnc(N)nc4)nc12)CCN3
unit-symbol: %
viability, T/C: 116

compound: CC1(C)CCC(Nc2ncc(C(F)(F)F)c(-c3c[nH]c4c(P(C)(C)=O)c(C#N)ccc34)n2)CN1 (stereo not given) + CC(Nc1ccc2c(c1)OCCn1cc(N3C(=O)OCC3C(F)F)nc1-2)C(N)=O
unit-symbol: %
viability, T/C: 86.1

compound: CCCS(=O)(=O)Nc1ccc(F)c(C(=O)c2c[nH]c3ncc(-c4ccc(Cl)cc4)cc23)c1F + CC(Nc1ccc2c(c1)OCCn1cc(N3C(=O)OCC3C(F)F)nc1-2)C(N)=O
unit-symbol: %
viability, T/C: 97.1

compound: CC(C)NCC(C(=O)N1CCN(c2ncnc3c2C(C)CC3O)CC1)c1ccc(Cl)cc1 (stereo not given) + COc1c(OCCCN2CCOCC2)ccc2c3n(c(=NC(=O)c4cnc(N)nc4)nc12)CCN3
unit-symbol: %
viability, T/C: 52.1

compound: Cn1nccc1Nc1nccc(-c2ccn(C(CO)c3ccc(Cl)c(F)c3)c(=O)c2)n1 (stereo not given) + COc1c(OCCCN2CCOCC2)ccc2c3n(c(=NC(=O)c4cnc(N)nc4)nc12)CCN3
unit-symbol: %
viability, T/C: 109

compound: CC(Cn1ccc(-c2ccc(C#N)c(Cl)c2)n1)NC(=O)c1cc(C(C)O)[nH]n1 (stereo not given) + CC(Nc1ccc2c(c1)OCCn1cc(N3C(=O)OCC3C(F)F)nc1-2)C(N)=O
unit-symbol: %
viability, T/C: 114
